pKi: −log10 of the molar value.
Listed here: molecules with reported pKi for serotonin transporter (Rattus norvegicus).

{"columns": ["molecule", "study_target", "pKi"],
 "data": [
  ["O=C1CCOc2c1ccc1c2OC(CN2CC=C(c3c[nH]c4ccccc34)CC2)CO1 (stereo not shown)", "serotonin transporter (Rattus norvegicus)", 8.56],
  ["C1=C(c2c[nH]c3ccccc23)CCN(CC2COc3ccc4c(c3O2)OCCC4)C1 (stereo not shown)", "serotonin transporter (Rattus norvegicus)", 9.05],
  ["O=c1ccoc2c3c(ccc12)OC[C@H](CN1CC=C(c2c[nH]c4ccc(F)cc24)CC1)O3", "serotonin transporter (Rattus norvegicus)", 8.57],
  ["Fc1ccc2[nH]cc(C3=CCN(CC4COc5ccc6c(c5O4)OCCC6)CC3)c2c1 (stereo not shown)", "serotonin transporter (Rattus norvegicus)", 8.59]
]}
